Origin of measurements: patent US20060035961A1

- System Under Test: hTP (Homo sapiens, UniProt P21731)
- Sequence (P21731 whole entry): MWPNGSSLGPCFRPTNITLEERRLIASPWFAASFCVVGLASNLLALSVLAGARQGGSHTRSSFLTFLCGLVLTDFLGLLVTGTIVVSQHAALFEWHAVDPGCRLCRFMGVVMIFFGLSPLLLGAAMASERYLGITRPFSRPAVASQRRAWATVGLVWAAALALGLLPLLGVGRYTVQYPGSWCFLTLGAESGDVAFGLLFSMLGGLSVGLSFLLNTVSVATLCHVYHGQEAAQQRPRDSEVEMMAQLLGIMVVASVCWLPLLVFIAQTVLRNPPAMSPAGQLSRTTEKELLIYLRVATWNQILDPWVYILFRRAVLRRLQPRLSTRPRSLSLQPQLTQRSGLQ
- Experiment Summary: FLIPR calcium signal study, hTP
- Measurement Conditions: HEK-293(EBNA) cells expressing recombinant human receptor, read-out: HTP functional data
Endpoint: EC50 (nM)

Recorded results for 2 compounds are shown here.
Cc1sc(CC[C@H](O)/C=C/[C@H]2C(C)CC(O)[C@@H]2C/C=C\CCCC(N)=O)cc1Br (stereo partly shown) [Compound 17H]	1950
Cc1sc(CC[C@H](O)/C=C/[C@H]2CCC(O)[C@@H]2C/C=C\CCCC(N)=O)cc1Br (stereo partly shown) [Compound 23H]	2130

P = C=CC1CC(O)[C@H](C/C=C\CCCC(N)=O)[C@H]1/C=C/[C@@H](O)CCc1cc(Br)c(C)s1 (stereo partly shown) [Compound 13H]
Q = Cc1sc(CC[C@H](O)/C=C/[C@H]2C(C)CC(O)[C@@H]2C/C=C\CCCC(=O)NCCO)cc1Br (stereo partly shown) [Compound 16H]
-- ask Could you kindly indicate whether P or Q has the higher EC50 value? Answer format: the label of the selected item.
-- reply P
(P: 2520 nM, Q: 1380 nM)
